Recorded GI50 by entry
System: NCI-H1048 cells
assay-protocol: MTT proliferation assay, NCI-H1048
Type: cell-based
test-context: 5 days compound exposure, 1:3 serial dilution starting at 10 μM
Respond numerically; units are nM and should not be typed.

molecule	system-under-test	GI50, nM
CC(C)C[C@@H]1NC(=O)[C@@H](N(C)C(=O)[C@@H](NC(=O)[C@@H]2C[C@@H](F)CN2C(=O)C2(C(F)(F)F)CCC2)C2CC2)CC=CCCCCNC(=O)[C@H](Cc2cc(Cl)cnc2OC(C)C)N(C)C1=O (single isomer, unassigned) [Example 136-P1]	NCI-H1048 cells	830

Now take the following molecule into account.
What does the record list as GI50 for CC(C)C[C@@H]1NC(=O)[C@@H](N(C)C(=O)[C@@H](NC(=O)[C@@H]2C[C@@H](F)CN2C(=O)C2(C(F)(F)F)CC3(CCC3)C2)C2CC2)CC=CCCCCNC(=O)[C@H](Cc2cc(Cl)ccc2Cl)N(C)C1=O (single isomer, unassigned) [Example 16-P2] ? 350

====

system-under-test: CyclinE1/CDK2 (Homo sapiens, UniProt P24864)
Construct: purchased Eurofins, discovery 14-475
assay-protocol: Fluorescence Polarization (FP) competitive binding assay, Cyclin E1/Cdk2;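 note: readings taken after two-hour equilibration at room temperature in HEPES buffer with NaCl, DTT, NP-40 and BSA, IC50 fitted from eight-concentration serial dilution series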
measured-parameter: IC50 (nM)
Provide only the numeric value, understood in nM.

What IC50 value was documented for this compound, CCN(C(=O)[C@@H](NC(=O)[C@@H]1C[C@@H](F)CN1C(=O)[C@@]1(C(F)(F)F)CCCCO1)C1CC1)[C@H]1CCCCCCCN(C)C(=O)[C@H](Cc2cc(Cl)cnc2OC2CC2)N(C)C(=O)[C@H](CC(C)C)NC1=O ? 180

====

Listed next: entries and their corresponding IC50.
system-under-test: CyclinA2/CDK2 (Homo sapiens, UniProt P20248)
Construct: purchased CRELUX Protein Services
assay-protocol: Fluorescence Polarization (FP) competitive binding assay, Cyclin A2/Cdk2
test-context: 8 nM Cyclin A2/Cdk2, 2 nM FAM probe; average of 2-3 independent experiments; read-out: Cyclin A FP IC50
*1 amine or outer side, *2 acyl side, *3 side chain or, on linkers, in order; H or OH if unused. Where a SMILES comes first, the peptide text is derived from it. Bridges are numbered along the chain shown (N, C = ends). [ ]: non-standard residue; d: D form. The star is where a group is joined. X150 = CC(C)C(=O)N1C2C=C(c3ccc(F)cc3C[C@@H](C(=O)[*:2])N(C)[*:1])CC1CC2; NMehhhLys(Me) = CN([C@@H](CCCCCCCN(C)[*:3])C(=O)[*:2])[*:1]; X22 = CN([C@@H](Cc1cc(Cl)ccc1-c1cnn(C)c1)C(=O)[*:2])[*:1]; NMe(hhhLys) = CN([C@@H](CCCCCCCN[*:3])C(=O)[*:2])[*:1]; Cyclobutanecarbonyl(1-CF3) = O=C(C1(C(F)(F)F)CCC1)*; cBuCO(3,3-F2-1-CF3) = O=C(C1(C(F)(F)F)CC(F)(F)C1)*; Pro(trans-4-F) = O=C(O)[C@@H]1C[C@@H](F)CN1; Gly(cPr) = N[C@H](C(=O)O)C1CC1
Write the value in nM as a bare number.

compound	measured-parameter	unit-string	reported
CC(C)C[C@@H]1NC(=O)[C@@H](N(C)C(=O)[C@@H](NC(=O)[C@@H]2C[C@@H](F)CN2C(=O)C2(C(F)(F)F)CCC2)C2CC2)CCCCCCCNC(=O)[C@H](Cc2cc(Cl)ccc2-c2cnn(C)c2)N(C)C1=O [Example 70] ({Cyclobutanecarbonyl(1-CF3)}-[Pro(trans-4-F)][Gly(cPr)][NMe(hhhLys)]L[X22]; lactam 3-C)	IC50	nM	20

Reported IC50 for CC[C@H](NC(=O)C1(C(F)(F)F)CC1)C(=O)N[C@@H](C)C(=O)N[C@H]1CC=CCCCCNC(=O)[C@H](Cc2cc(Cl)ccc2Cl)N(C)C(=O)[C@H](CC(C)C)NC1=O : what is it? 210

Try this compound next: CC(C)C[C@@H]1NC(=O)[C@@H](N(C)C(=O)[C@@H](NC(=O)[C@@H]2C[C@@H](F)CN2C(=O)C2(C(F)(F)F)CC(F)(F)C2)C2CC2)CCCCCCCN(C)C(=O)[C@H](Cc2cc(F)ccc2C2=CC3CCC(C2)N3C(=O)C(C)C)N(C)C1=O (stereo partly drawn) [Example 150] ({cBuCO(3,3-F2-1-CF3)}-[Pro(trans-4-F)][Gly(cPr)][NMehhhLys(Me)]L[X150]; lactam 3-C) 20

====

Test system: NCI-H1048 cells
assay-protocol: MTT proliferation assay, NCI-H1048;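 note: Dose-response in 96-well plates over 8 or 10 concentration points, with exposure spanning 3-4 cell doublings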
Format: cell-based
test-context: 5 days compound exposure, 1:3 serial dilution starting at 10 μM
*1 amine or outer side, *2 acyl side, *3 side chain or, on linkers, in order; H or OH if unused. Where a SMILES comes first, the peptide text is derived from it. Bridges are numbered along the chain shown (N, C = ends). [ ]: non-standard residue; d: D form. The star is where a group is joined. NMehhhLys(Me) = CN([C@@H](CCCCCCCN(C)[*:3])C(=O)[*:2])[*:1]; X44 = Cc1nnc(-c2ccc(Cl)cc2C[C@@H](C(=O)[*:2])N(C)[*:1])o1; NMe(hhhLys) = CN([C@@H](CCCCCCCN[*:3])C(=O)[*:2])[*:1]; X152 = CN([C@@H](Cc1cc(Cl)ccc1OC1CC1)C(=O)[*:2])[*:1]; cBuCO(3,3-F2-1-CF3) = O=C(C1(C(F)(F)F)CC(F)(F)C1)*; NMePhe(2,5-Cl2) = CN[C@@H](Cc1cc(Cl)ccc1Cl)C(=O)O; Pro(trans-4-F) = O=C(O)[C@@H]1C[C@@H](F)CN1; X155 = C[C@@](O)(C(=O)*)C(F)(F)F; Gly(cPr) = N[C@H](C(=O)O)C1CC1
measured-parameter: GI50 (nM)
Quick note: give the figure in nM, leave out the unit.

The following compounds have reported results that may help.
compound	measured-parameter	reported
CC(C)C[C@@H]1NC(=O)[C@@H](N(C)C(=O)[C@@H](NC(=O)[C@@H]2C[C@@H](F)CN2C(=O)[C@@](C)(O)C(F)(F)F)C2CC2)CCCCCCCNC(=O)[C@H](Cc2cc(Cl)ccc2Cl)N(C)C1=O [Example 10] (X155-[Pro(trans-4-F)][Gly(cPr)][NMe(hhhLys)]L[NMePhe(2,5-Cl2)]; lactam 3-C)	GI50	20
CC(C)C[C@@H]1NC(=O)[C@@H](N(C)C(=O)[C@@H](NC(=O)[C@@H]2C[C@@H](F)CN2C(=O)C2(C(F)(F)F)CC(F)(F)C2)C2CC2)CCCCCCCN(C)C(=O)[C@H](Cc2cc(Cl)ccc2OC2CC2)N(C)C1=O [Example 314] ({cBuCO(3,3-F2-1-CF3)}-[Pro(trans-4-F)][Gly(cPr)][NMehhhLys(Me)]L[X152]; lactam 3-C)	GI50	10

Can you look up the measured GI50 of Cc1nnc(-c2ccc(Cl)cc2C[C@H]2C(=O)N(C)CCCCCCC[C@H](N(C)C(=O)[C@@H](NC(=O)[C@@H]3C[C@@H](F)CN3C(=O)C3(C(F)(F)F)CC(F)(F)C3)C3CC3)C(=O)N[C@@H](CC(C)C)C(=O)N2C)o1 [Example 162] ({cBuCO(3,3-F2-1-CF3)}-[Pro(trans-4-F)][Gly(cPr)][NMehhhLys(Me)]L[X44]; lactam 3-C) for me? 10

====

system-under-test: CyclinA2/CDK2 (Homo sapiens, UniProt P20248)
Construct: purchased CRELUX Protein Services
assay-protocol: Fluorescence Polarization (FP) competitive binding assay, Cyclin A2/Cdk2;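 note: plates equilibrated two hours at room temperature before polarization reading, IC50 fitted from eight-concentration compound titration curves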
test-context: 8 nM Cyclin A2/Cdk2, 2 nM FAM probe; average of 2-3 independent experiments; read-out: Cyclin A FP IC50
*1 amine or outer side, *2 acyl side, *3 side chain or, on linkers, in order; H or OH if unused. Where a SMILES comes first, the peptide text is derived from it. Bridges are numbered along the chain shown (N, C = ends). [ ]: non-standard residue; d: D form. The star is where a group is joined. X191 = CN([C@@H](Cc1cc(Cl)ccc1-c1ccc(N2CCOCC2)c(F)c1F)C(=O)[*:2])[*:1]; NMehhhLys(Me) = CN([C@@H](CCCCCCCN(C)[*:3])C(=O)[*:2])[*:1]; X66 = CN([C@@H](Cc1cc(Cl)ccc1-c1cccnc1)C(=O)[*:2])[*:1]; NMe(hhhLys) = CN([C@@H](CCCCCCCN[*:3])C(=O)[*:2])[*:1]; X152 = CN([C@@H](Cc1cc(Cl)ccc1OC1CC1)C(=O)[*:2])[*:1]; cBuCO(3,3-F2-1-CF3) = O=C(C1(C(F)(F)F)CC(F)(F)C1)*; Pro(trans-4-F) = O=C(O)[C@@H]1C[C@@H](F)CN1; Gly(cPr) = N[C@H](C(=O)O)C1CC1
measured-parameter: pIC50
Note on pIC50: it is the negative log10 of concentration, concentration in mol/L.

Solved entries (count: 2):
molecule	measured-parameter	reported
CC(C)C[C@@H]1NC(=O)[C@@H](N(C)C(=O)[C@@H](NC(=O)[C@@H]2C[C@@H](F)CN2C(=O)C2(C(F)(F)F)CC(F)(F)C2)C2CC2)CCCCCCCNC(=O)[C@H](Cc2cc(Cl)ccc2-c2cccnc2)N(C)C1=O [Example 276] ({cBuCO(3,3-F2-1-CF3)}-[Pro(trans-4-F)][Gly(cPr)][NMe(hhhLys)]L[X66]; lactam 3-C)	pIC50	7.52
CC(C)C[C@@H]1NC(=O)[C@@H](N(C)C(=O)[C@@H](NC(=O)[C@@H]2C[C@@H](F)CN2C(=O)C2(C(F)(F)F)CC(F)(F)C2)C2CC2)CCCCCCCNC(=O)[C@H](Cc2cc(Cl)ccc2OC2CC2)N(C)C1=O [Example 311] ({cBuCO(3,3-F2-1-CF3)}-[Pro(trans-4-F)][Gly(cPr)][NMe(hhhLys)]L[X152]; lactam 3-C)	pIC50	7.30

Let us move to another entry and its pIC50.
Request body: readout pIC50, system CyclinA2/CDK2 (Homo sapiens, UniProt P20248), query CC(C)C[C@@H]1NC(=O)[C@@H](N(C)C(=O)[C@@H](NC(=O)[C@@H]2C[C@@H](F)CN2C(=O)C2(C(F)(F)F)CC(F)(F)C2)C2CC2)CCCCCCCN(C)C(=O)[C@H](Cc2cc(Cl)ccc2-c2ccc(N3CCOCC3)c(F)c2F)N(C)C1=O [Example 386] ({cBuCO(3,3-F2-1-CF3)}-[Pro(trans-4-F)][Gly(cPr)][NMehhhLys(Me)]L[X191]; lactam 3-C) . Return the value. 7.70
